Would you mind telling me the reported CC50 of each entry?
# Protocol Text: Cytotoxicity against human HFF cells after 3 to 8 days by crystal voilet staining
# Type: cell-based

Examples from the recorded data:
Compound	Measured Attribute	Result
Nc1nc(SCc2ccccc2)c2ncn(/C=C3/CC3(CO)CO)c2n1	CC50	> 300 µM
CNc1nc(N)nc2c1ncn2/C=C1/CC1(CO)CO	CC50	265 µM
Nc1nc(N2CCOCC2)c2ncn(/C=C3/CC3(CO)CO)c2n1	CC50	> 300 µM
C=CCOc1nc(N)nc2c1ncn2/C=C1/CC1(CO)CO	CC50	> 300 µM
CCCOc1nc(N)nc2c1ncn2/C=C1/CC1(CO)CO	CC50	> 300 µM
CCCCOc1nc(N)nc2c1ncn2/C=C1/CC1(CO)CO	CC50	> 300 µM
CCCSc1nc(N)nc2c1ncn2/C=C1/CC1(CO)CO	CC50	> 300 µM
CCCCCOc1nc(N)nc2c1ncn2/C=C1/CC1(CO)CO	CC50	259 µM

// for each compound below, give its CC50
1. Nc1nc2c(ncn2COC(CO)CO)c(=O)[nH]1 [GANCICLOVIR]
2. CN(C)c1nc(N)nc2c1ncn2/C=C1/CC1(CO)CO
3. Nc1nc2c(ncn2/C=C2/CC2(CO)CO)c(=O)[nH]1 [FILOCICLOVIR]

## Result
1. > 300 µM
2. > 300 µM
3. > 300 µM
